B1: TSPAN10 (parent)
chain: EGCGPPLRRWLRANLAASGGYAIA

Variants of: B1
test: protein stability index of a GFP-peptide fusion (GPS, HEK-293T) (PSI 1-6); higher = more stable;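 also: lentivirally expressed fusions sorted by FACS into six bins by GFP to DsRed ratio, PSI derived from sequencing read proportions per bin multiplied by bin number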
condition_label: c terminus: a fixed tail appended
measurement_name: protein stability index
Output spec: single numeric token, no unit.

E1G
2

Return protein stability index (reported value) for this variant: `P5H` 1.7

Return protein stability index (reported value) for this variant: `R12H` 2.47

Return protein stability index (reported value) for this variant: `Y21S` 2.7

Return protein stability index (reported value) for this variant: `E1C` 3.75

Return protein stability index (reported value) for this variant: `G4T` 2.5
